- Subject of test: unphosphorylated-BTK kinase domain (UP-BTK), GST-tagged human BTK (389-659aa) (Homo sapiens (Human), UniProt Q06187)
- Sequence (Q06187 389-659): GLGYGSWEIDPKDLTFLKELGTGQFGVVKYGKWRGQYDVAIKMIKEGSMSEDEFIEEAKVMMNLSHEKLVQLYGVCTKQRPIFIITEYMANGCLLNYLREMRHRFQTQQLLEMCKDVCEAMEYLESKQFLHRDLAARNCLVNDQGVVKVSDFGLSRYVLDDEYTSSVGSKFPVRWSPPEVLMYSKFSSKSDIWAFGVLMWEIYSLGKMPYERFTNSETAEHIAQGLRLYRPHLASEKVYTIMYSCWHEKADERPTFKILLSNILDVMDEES
- Assay text: BTK Kinase Lanthascreen Binding Assay
- Measurement context: Lanthascreen binding, 60 minutes incubation; pIC50 = negative log of the IC50 in molar
Form field: BTK_I_binding pIC50 (one value per entry).
Give a plain numeric answer without units written out.

For orientation, consider the following solved cases.
C=CC(=O)N[C@H]1CCC[C@H]1NC(=O)c1sc2nccc3c2c1NC(=O)N3c1cnc(Oc2cccc(C)n2)cc1C    7.49
C=CC(=O)N[C@H]1CCC[C@H]1NC(=O)c1sc2nccc3c2c1NC(=O)N3c1cnc(Oc2ccccn2)cc1C    7.62
C=CC(=O)N[C@H]1CCCC[C@H]1NC(=O)c1sc2nccc3c2c1NC(=O)N3c1ccc(Oc2cccnn2)cc1C    6.13
C=CC(=O)N[C@H]1CCC[C@H]1NC(=O)c1sc2nccc3c2c1NC(=O)N3c1ccnc(-c2ccccn2)c1    7.07

stdin: Any idea what BTK_I_binding pIC50 was measured for CCC(=O)NC1CCC[C@@H](NC(=O)c2sc3nccc4c3c2NC(=O)N4c2cnc(Oc3ccccc3)cc2C)C1 (single isomer, unassigned) ?
stdout: 7.75

stdin: BTK_I_binding pIC50 lookup needed for C=CC(=O)N[C@H]1CCC[C@H]1NC(=O)c1sc2nccc3c2c1NC(=O)N3c1ccc(Oc2cccnc2C)cc1C , thanks.
stdout: 7.54

stdin: What measured BTK_I_binding pIC50 goes with C=CC(=O)N[C@H]1CCCC[C@H]1NC(=O)c1sc2nccc3c2c1NC(=O)N3c1cnc(Oc2ccccc2)cn1 ?
stdout: 8.39

stdin: Given the entry C=CC(=O)N[C@@H]1CCC[C@H]1NC(=O)c1sc2nccc3c2c1NC(=O)N3c1cnc(Oc2ccccc2)nc1 , report its measured BTK_I_binding pIC50.
stdout: 7.14

stdin: BTK_I_binding pIC50 for C=CC(=O)N[C@H]1CCCC[C@H]1NC(=O)c1sc2nccc3c2c1NC(=O)N3c1cnc(OCC(C)C)cc1C (single isomer, unassigned) ?
stdout: 8.01

stdin: Quick one: BTK_I_binding pIC50 of Cc1cc(Oc2ccccc2)ccc1N1C(=O)Nc2c(C(=O)N[C@H]3CCCC[C@H]3NC(=O)CN)sc3nccc1c23 (single isomer, unassigned) ?
stdout: 6.73

stdin: Field request: BTK_I_binding pIC50 | item: Cc1nc(Oc2ccccc2)ccc1N1C(=O)Nc2c(C(=O)N[C@@H]3CCC[C@H]3N)sc3nccc1c23 (single isomer, unassigned)
stdout: 6.28

stdin: BTK_I_binding pIC50 for C=CC(=O)N[C@H]1CCC[C@H]1NC(=O)c1sc2nccc3c2c1NC(=O)N3c1ccc(Oc2ncccn2)cn1 ?
stdout: 6.93

stdin: GET /values?readout=BTK_I_binding pIC50&item= C=CC(=O)N[C@H]1CCC[C@H]1NC(=O)c1sc2nccc3c2c1NC(=O)N3c1ccc(Oc2cccc(C)n2)cc1
stdout: 8.06

---

Recorded measurements of BTK_I_binding pIC50, one per entry
- Subject of test: unphosphorylated-BTK kinase domain (UP-BTK), GST-tagged human BTK (389-659aa) (Homo sapiens (Human), UniProt Q06187)
- Assay text: BTK Kinase Lanthascreen Binding Assay
- Measurement context: compound, 50 nM Tracer 236, 2 nM anti-GST antibody, 60 minutes; pIC50 = negative log of the IC50 in molar
Format: numeric value only, no unit, no commentary.

Cc1cc(Oc2ccccc2)ccc1N1C(=O)Nc2c(C(=O)N[C@@H]3CCC[C@@H](N)C3)sc3nccc1c23 (single isomer, unassigned)    7.33
CC(=O)N[C@@H]1CC[C@H](NC(=O)c2sc3nccc4c3c2NC(=O)N4c2ccc(Oc3ccccc3)cc2C)C1 [Example 70]    7.69

--- query ---
stdin: Request the reported BTK_I_binding pIC50 associated with CNCC(=O)N[C@H]1CC[C@H](NC(=O)c2sc3nccc4c3c2NC(=O)N4c2ccc(Oc3ccccc3)cc2C)C1
stdout: 6.84

---

Measured BTK_I_binding pIC50 accompanies every entry in the list below.
- Subject of test: unphosphorylated-BTK kinase domain (UP-BTK), GST-tagged human BTK (389-659aa) (Homo sapiens (Human))
- Assay text: BTK Kinase Lanthascreen Binding Assay
- Measurement context: compound, 50 nM Tracer 236, 2 nM anti-GST antibody, 60 minutes; pIC50 = negative log of the IC50 in molar
Lab note: record the figure alone, no unit after it.

C=CC(=O)N[C@@H]1CCCC[C@H]1NC(=O)c1sc2nccc3c2c1NC(=O)N3c1cnc(Oc2ccccc2)cc1C (single isomer, unassigned)    7.30
CNCC(=O)N[C@H]1CCC[C@@H]1NC(=O)c1sc2nccc3c2c1NC(=O)N3c1ccc(Oc2ccccc2)cc1C (single isomer, unassigned)    7.13
CC(=O)N[C@@H]1CCCC[C@@H]1NC(=O)c1sc2nccc3c2c1NC(=O)N3c1ccc(Oc2ccccc2)cc1C    6.17

Here is another molecule to look at.
stdin: Look up BTK_I_binding pIC50: CC(=O)N[C@H]1CCC[C@@H]1NC(=O)c1sc2nccc3c2c1NC(=O)N3c1ccc(Oc2ccccc2)cc1C (single isomer, unassigned) [Example 134]
stdout: 6.76

---

- Subject of test: unphosphorylated-BTK kinase domain (UP-BTK), GST-tagged human BTK (389-659aa) (Homo sapiens (Human), UniProt Q06187)
- Assay text: BTK Kinase Lanthascreen Binding Assay
- Measurement context: Lanthascreen binding, 60 minutes incubation; pIC50 = negative log of the IC50 in molar
Would you please tag the item 1 (yes) when its BTK_I_binding pIC50 is 7 or above, and 0 (no) when it is below?

CC(=O)NC1CCC[C@@H](NC(=O)c2sc3nccc4c3c2NC(=O)N4c2cnc(Oc3ccccc3)cc2C)C1 (single isomer, unassigned)    1 (yes)
C=CC(=O)N[C@H]1CCC[C@H]1NC(=O)c1sc2nccc3c2c1NC(=O)N3c1cnc(Oc2cccnc2)cc1C    1 (yes)
Cc1cc(Oc2ccccc2)ccc1N1C(=O)Nc2c(C(=O)N3CC[C@H](N(C)C)C3)sc3nccc1c23    0 (no)
CNCC(=O)N[C@@H]1CCCC[C@H]1NC(=O)c1sc2nccc3c2c1NC(=O)N3c1ccc(Oc2ccccc2)cc1C (single isomer, unassigned)    0 (no)

# input for lookup
stdin: Tell me whether BTK_I_binding pIC50 is at least 7 here: Cc1cc(CC(C)C)ncc1N1C(=O)Nc2c(C(=O)N[C@@H]3CCC[C@@H]3NC(=O)/C(C#N)=C/C3CC3)sc3nccc1c23 (single isomer, unassigned)
stdout: 1 (yes)

---

- Subject of test: unphosphorylated-BTK kinase domain (UP-BTK), GST-tagged human BTK (389-659aa) (Homo sapiens (Human))
- Assay text: BTK Kinase Lanthascreen Binding Assay
- Measurement context: compound, 50 nM Tracer 236, 2 nM anti-GST antibody, 60 minutes; pIC50 = negative log of the IC50 in molar
Measured attribute: BTK_I_binding pIC50
Form rule: numeric answer, no unit written next to it.

N[C@H]1CCC[C@H]1NC(=O)c1sc2nccc3c2c1NC(=O)N3c1ccnc(-c2ccccc2)c1    6.38
C=CC(=O)N[C@H]1CC[C@H](NC(=O)c2sc3nccc4c3c2NC(=O)N4c2ccc(Oc3ccccc3)cc2C)CC1    6.94
Cc1cc(Oc2ccccc2)ccc1N1C(=O)Nc2c(C(=O)N[C@H]3CCC[C@H](N)C3)sc3nccc1c23 (single isomer, unassigned)    6.66
Cc1cc(Oc2ccccc2)ccc1N1C(=O)Nc2c(C(=O)N[C@H]3CCCC[C@@H]3N(C)C)sc3nccc1c23    5.29
C=CC(=O)N[C@@H]1CCC[C@@H]1NC(=O)c1sc2nccc3c2c1NC(=O)N3c1ccc(Oc2ccccc2)cc1C (single isomer, unassigned)    6.81
C=CC(=O)N[C@H]1CCC[C@@H]1NC(=O)c1sc2nccc3c2c1NC(=O)N3c1ccc(Oc2ccccc2)cc1C (single isomer, unassigned) [Example 116]    7.30
Cc1cc(Oc2ccccc2)ccc1N1C(=O)Nc2c(C(=O)N[C@@H]3CCC[C@@H]3O)sc3nccc1c23 [Example 6]    7.48
CC(=O)N[C@@H]1CC[C@H](NC(=O)c2sc3nccc4c3c2NC(=O)N4c2ccc(Oc3ccccc3)cc2C)C1 (relative stereo) [Example 88]    7.89
C=CC(=O)N[C@H]1CCC[C@H]1NC(=O)c1sc2nccc3c2c1NC(=O)N3c1ccc(Oc2ccccc2)cc1    8.37
CCC(=O)N[C@H]1CCCC[C@H]1NC(=O)c1sc2nccc3c2c1NC(=O)N3c1ccc(Oc2ccccc2)cc1C    6.87

stdin: Any idea what BTK_I_binding pIC50 was measured for Cc1cc(Oc2ccccc2)ccc1N1C(=O)Nc2c(C(=O)N[C@H]3CC[C@@H](N)C3)sc3nccc1c23 ?
stdout: 6.88

stdin: Need BTK_I_binding pIC50 of C=CC(=O)N[C@H]1CC[C@@H](NC(=O)c2sc3nccc4c3c2NC(=O)N4c2ccc(Oc3ccccc3)cc2C)C1 (single isomer, unassigned) , thanks.
stdout: 7.12

stdin: I would be grateful if you could share the reported BTK_I_binding pIC50 for C=CC(=O)N[C@@H]1CCCC[C@H]1NC(=O)c1sc2nccc3c2c1NC(=O)N3c1ccc(Oc2ccccc2)nc1 .
stdout: 6.47
